B1: Far upstream element-binding protein 1, residues 98 to 169; numbered along this chain, Q96AE4 (parent)
chain: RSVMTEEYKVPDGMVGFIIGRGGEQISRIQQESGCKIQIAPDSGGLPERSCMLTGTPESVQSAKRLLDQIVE

# Variants of: B1
# Experiment Notes: abundance fitness (aPCA) (normalised: wild type 0, dead -1); higher = more abundant; growth selection in yeast, the domain comes from the species named
# Experimental Context: Homo sapiens
Measured Endpoint: abundance fitness

INSERT INTO results (sequence, measured_endpoint, numeric_value) VALUES
  ('RSVMTEEYKVPDGMVGFIIGRGGEQISRIQQESGCKIQIAPDSGGLPERSCMLTGTPELVQSAKRLLDQIVE [S59L]', 'abundance fitness', -0.401),
  ('RSVMTEEYKVPDGMVGFIIGRGGEQISRFQQESGCKIQIAPDSGGLPERSCMLTGTPESVQSAKRLLDQIVE [I29F]', 'abundance fitness', -0.144),
  ('RSVMTEEYKVPDGMVGFIIGRGGEQISRIQQEFGCKIQIAPDSGGLPERSCMLTGTPESVQSAKRLLDQIVE [S33F]', 'abundance fitness', -0.219),
  ('RSVMTEEYKVPDGMVGFIIGRGGEQISRIQQESGCKIQIAPDSGGLPERSCMLTGTPESVQSTKRLLDQIVE [A63T]', 'abundance fitness', -0.303),
  ('RSQMTEEYKVPDGMVGFIIGRGGEQISRIQQESGCKIQIAPDSGGLPERSCMLTGTPESVQSAKRLLDQIVE [V3Q]', 'abundance fitness', -0.004),
  ('RSVMTEEYKVPDGMVGFIIGRGGEQISRIQQESGCKIQIAPDSGGLPFRSCMLTGTPESVQSAKRLLDQIVE [E48F]', 'abundance fitness', -0.015),
  ('RSVMTEEYKVPDGMVGFIIGRGGEQISRIQQESGCKIQIAPDSGGLPERSCMPTGTPESVQSAKRLLDQIVE [L53P]', 'abundance fitness', -1.03),
  ('RSVMTEEYKVPDGMVGFIIGRGGEQISRIQQESGCKIQIAPDSGGLPERSCMLTGTPRSVQSAKRLLDQIVE [E58R]', 'abundance fitness', -0.08),
  ('RSVMTEEYKVPDGMVGFMIGRGGEQISRIQQESGCKIQIAPDSGGLPERSCMLTGTPESVQSAKRLLDQIVE [I18M]', 'abundance fitness', -0.049),
  ('RSVMTEEYKVPDQMVGFIIGRGGEQISRIQQESGCKIQIAPDSGGLPERSCMLTGTPESVQSAKRLLDQIVE [G13Q]', 'abundance fitness', 0.033),
  ('RWVMTEEYKVPDGMVGFIIGRGGEQISRIQQESGCKIQIAPDSGGLPERSCMLTGTPESVQSAKRLLDQIVE [S2W]', 'abundance fitness', -0.133),
  ('RAVMTEEYKVPDGMVGFIIGRGGEQISRIQQESGCKIQIAPDSGGLPERSCMLTGTPESVQSAKRLLDQIVE [S2A]', 'abundance fitness', -0.033),
  ('RSVMTEEYKVPDGMVGFIIGRGGEQISRIQQESGCKIQIAPDSGGLPERSCMLTGTPESVLSAKRLLDQIVE [Q61L]', 'abundance fitness', -0.003),
  ('RSVMTEEYKVPDGMVGFIIGRGGEQISRIQQESGCKIHIAPDSGGLPERSCMLTGTPESVQSAKRLLDQIVE [Q38H]', 'abundance fitness', -0.034),
  ('RSVMTEEYKVPDGMVGFIIGRGGEQISRIQQESGCKIQIAPDSGPLPERSCMLTGTPESVQSAKRLLDQIVE [G45P]', 'abundance fitness', -0.078),
  ('RSVMTEEYKVPDGMVGFIIGRGGEQISRIQQESGCKIQIAPDSGGLPERSCGLTGTPESVQSAKRLLDQIVE [M52G]', 'abundance fitness', -0.137),
  ('RSVMTEEYKLPDGMVGFIIGRGGEQISRIQQESGCKIQIAPDSGGLPERSCMLTGTPESVQSAKRLLDQIVE [V10L]', 'abundance fitness', -0.018),
  ('RSVMTEEYKVPDGMVGFIIGRGGEQISRIQQESGCKIQWAPDSGGLPERSCMLTGTPESVQSAKRLLDQIVE [I39W]', 'abundance fitness', -0.109),
  ('RSVMTEEYKVPDGMVGFIIGRGGEQISRIQQESGCKIQIAPDSGGLPERSCMLTGTPESVQSAKRLLIQIVE [D68I]', 'abundance fitness', -0.093),
  ('RSVMTEEYKVPDGMVGFIIGRHGEQISRIQQESGCKIQIAPDSGGLPERSCMLTGTPESVQSAKRLLDQIVE [G22H]', 'abundance fitness', -0.021),
  ('RSVMVEEYKVPDGMVGFIIGRGGEQISRIQQESGCKIQIAPDSGGLPERSCMLTGTPESVQSAKRLLDQIVE [T5V]', 'abundance fitness', -0.049),
  ('RSVMTEEYKVPDGMVGFIIVRGGEQISRIQQESGCKIQIAPDSGGLPERSCMLTGTPESVQSAKRLLDQIVE [G20V]', 'abundance fitness', -0.253),
  ('NSVMTEEYKVPDGMVGFIIGRGGEQISRIQQESGCKIQIAPDSGGLPERSCMLTGTPESVQSAKRLLDQIVE [R1N]', 'abundance fitness', 0.043),
  ('RSVMTEEYKVPDGMVGFIIGRGGEQISRIQQESGCKIQIAPDSGGLPERSCMLTGTPESVQSAKRLLDQIDE [V71D]', 'abundance fitness', -0.114),
  ('RSVMTEEYKVPDGMVGFIIGRGGEQISRIQQESGCKIQIAPDSGGLPERSHMLTGTPESVQSAKRLLDQIVE [C51H]', 'abundance fitness', -0.718),
  ('RSVMTEEYKVPDGMSGFIIGRGGEQISRIQQESGCKIQIAPDSGGLPERSCMLTGTPESVQSAKRLLDQIVE [V15S]', 'abundance fitness', -0.059),
  ('QSVMTEEYKVPDGMVGFIIGRGGEQISRIQQESGCKIQIAPDSGGLPERSCMLTGTPESVQSAKRLLDQIVE [R1Q]', 'abundance fitness', -0.513),
  ('RSVMTEEYKVPDGMVGFIIGRGCEQISRIQQESGCKIQIAPDSGGLPERSCMLTGTPESVQSAKRLLDQIVE [G23C]', 'abundance fitness', -0.101),
  ('RSVMTEEYKVPDGMVGFIIGRGGEQISRIQQESGCKIQIAPDSGGLPERSCMLTGTPESVQSAKELLDQIVE [R65E]', 'abundance fitness', -0.015),
  ('RSVMTEEYKVPDGMVGFSIGRGGEQISRIQQESGCKIQIAPDSGGLPERSCMLTGTPESVQSAKRLLDQIVE [I18S]', 'abundance fitness', -0.226),
  ('RSVMTEEYKVPDGMVGFIIGRGGEQISRIQQESGCKIQIAPDSGGLPERSCMLTGTPESVQSACRLLDQIVE [K64C]', 'abundance fitness', -0.137),
  ('RSVMTEEYKVPDGMVGFIIGRGGEQISRIQQESGCKIQIAPDSGGLPERSCMLTGTYESVQSAKRLLDQIVE [P57Y]', 'abundance fitness', -0.049),
  ('RSVMTEEYKVPDGMVGFIIGRGGEQISRIQQESHCKIQIAPDSGGLPERSCMLTGTPESVQSAKRLLDQIVE [G34H]', 'abundance fitness', -0.051),
  ('RSVMTEEYKVPDGMVGFIIGRGGEQISRIQQESGCKIQIAPDSGGLPERSCMLTGTPESVQSALRLLDQIVE [K64L]', 'abundance fitness', -0.231),
  ('RSVMTEEYKVPDGMVGFIIGRGGEQISRIQQESGCKIQIAPDSGGLPEASCMLTGTPESVQSAKRLLDQIVE [R49A]', 'abundance fitness', -0.088),
  ('RSTMTEEYKVPDGMVGFIIGRGGEQISRIQQESGCKIQIAPDSGGLPERSCMLTGTPESVQSAKRLLDQIVE [V3T]', 'abundance fitness', -0.005);
